All figures here come from patent US20060258735A1.

Counter-ions that a name gives are not always drawn.
value.type: melting point

Qu. Which melting point value belongs to "COc1cc(OC)c(-c2cc3ccccc3s2)cc1C=CC(=O)c1cc(OC)c(OCC(=O)[O-])c(OC)c1.[Na+]" ?
Ans. 191 to 196 °C (dec.)

Qu. Would you kindly share the measured melting point for "COc1cc(C=C2Cc3cc(-c4cccs4)ccc3C2=O)cc(OC)c1OC" ?
Ans. 216 to 222 °C

Qu. Need melting point of "COc1cc(OC)c(-c2cc3ccccc3s2)cc1C=CC(=O)c1cc(OC)c(OCC(=O)O)c(OC)c1" , thanks.
Ans. 145 to 153 °C

Qu. Please report the recorded melting point for COc1cc(OCC(=O)O)c(C=CC(=O)c2cc(OC)c(OC)c(OC)c2)cc1-c1cc2ccccc2s1 (as salt: sodium) .
Ans. 255 to 257 °C

Qu. // query melting point value for entry "COc1cc2c(cc1OC)C(=O)C(=Cc1cc(OC)c(OC)c(-c3cccs3)c1)CC2"
Ans. 192 to 205 °C

Qu. Field request: melting point | item: "COc1ccc(-c2cccs2)cc1C=CC(=O)c1ccc(F)c(F)c1"
Ans. 100 to 105 °C

Qu. Fill in: melting point of "COc1cccc(-c2ccc(C(=O)C=Cc3cc(-c4cccs4)ccc3OC)c(OC)c2)c1" is ___
Ans. 97 to 107 °C

Qu. Look at this compound and give its reported melting point. "COc1cc(C=CC(=O)c2ccc(OC)c(OC)c2OC)cc(-c2cccs2)c1OC"
Ans. 94 to 97 °C

Qu. Can you look up the measured melting point of "COc1ccc(-c2cccs2)cc1C=CC(=O)c1ccc(I)cc1OC" for me?
Ans. 150 to 155 °C

Qu. Could you share which melting point value was measured for "COc1ccc(-c2cccs2)cc1C=CC(=O)c1ccc(Cl)c(Cl)c1O" ?
Ans. 152 to 163 °C

###

Consider the following molecules; for each one, report its melting point.

Qu. # query: melting point of entry COc1cc(OC)c(-c2cccs2)cc1C=CC(=O)c1cc(OC)c(OC)c(OC)c1 [Example 5]
Ans. 75 to 80 °C

Qu. What value of measured melting point is listed for COc1cc(OC)c(-c2cc3ccccc3s2)cc1C=CC(=O)c1cc(OC)c(OCCN2CCOCC2)c(OC)c1 [Example 43] ?
Ans. 111 to 113 °C

Qu. Fill in the blank: the reported melting point of COc1ccc(-c2cccs2)cc1C=CC(=O)c1cc(OC)c(OCc2cccs2)cc1OC [Example 17] is ____.
Ans. 54 to 73 °C

Qu. Returns the measured melting point for the input molecule. Input: "COc1ccc(-c2cccs2)cc1C=CC(=O)c1ccc(Cl)c(Cl)c1O.[Na]"
Ans. > 260 °C

Qu. Item COc1ccc(-c2cccs2)cc1/C=C/C(=O)c1ccc(-c2cccs2)cc1OC [Example 58] has what recorded melting point?
Ans. 30 to 50 °C

Qu. Data request, read-out melting point, for COc1cc(C(=O)C=Cc2cc(OC)c(OC)c(-c3cc4ccccc4s3)c2)cc(OC)c1OC [Example 4]
Ans. 150 to 151 °C

Qu. Fill blank: measured melting point of the molecule COc1cc(C=CC(=O)c2ccc(OC)c(OC)c2OC)cc(-c2cc3ccccc3s2)c1OC [Example 49] is ____.
Ans. 120 to 124 °C

Qu. Quick one: melting point of COc1ccc(-c2cccs2)cc1C=C1Cc2cc(OC)c(OC)cc2C1=O [Example 55] ?
Ans. 164 to 172 °C
